These measurements were taken from patent US11912693B2.

Each item that follows carries a reported Emax.
- System: human sphingosine-1-phosphate receptor 1 (S1P1) (Homo sapiens (Human), UniProt P21453)
- Sequence (P21453 whole entry, looked up): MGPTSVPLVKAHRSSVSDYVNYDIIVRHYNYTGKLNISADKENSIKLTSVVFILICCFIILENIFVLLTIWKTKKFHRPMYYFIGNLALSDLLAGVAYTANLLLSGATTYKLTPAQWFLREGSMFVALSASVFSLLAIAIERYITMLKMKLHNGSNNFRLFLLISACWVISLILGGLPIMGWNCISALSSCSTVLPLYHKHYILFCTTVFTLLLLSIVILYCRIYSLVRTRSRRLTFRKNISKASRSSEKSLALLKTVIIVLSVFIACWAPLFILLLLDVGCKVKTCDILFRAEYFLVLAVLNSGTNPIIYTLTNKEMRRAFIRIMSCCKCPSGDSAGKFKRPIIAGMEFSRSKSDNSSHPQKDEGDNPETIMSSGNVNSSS
- Sequence (P32121 whole entry partner, looked up): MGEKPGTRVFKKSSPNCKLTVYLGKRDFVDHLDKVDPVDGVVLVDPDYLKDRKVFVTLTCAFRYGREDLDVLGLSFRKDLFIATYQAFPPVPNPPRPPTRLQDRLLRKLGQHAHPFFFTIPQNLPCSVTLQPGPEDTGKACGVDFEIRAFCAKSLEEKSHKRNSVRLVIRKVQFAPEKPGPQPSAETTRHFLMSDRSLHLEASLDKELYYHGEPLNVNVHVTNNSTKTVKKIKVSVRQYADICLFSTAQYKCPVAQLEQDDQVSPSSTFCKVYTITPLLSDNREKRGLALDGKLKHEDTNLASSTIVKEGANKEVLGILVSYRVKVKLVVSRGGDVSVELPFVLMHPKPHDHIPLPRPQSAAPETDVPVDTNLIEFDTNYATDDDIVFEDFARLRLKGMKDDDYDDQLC
- Experiment: β-Arrestin2 recruitment assay (PathHunter), S1P1 CHO-K1 cells
- Assay type: cell-based
- Cond: CHO-K1; efficacy (SPAN) normalized to fingolimod; read-out: hS1P1 B-arrestin2 SPAN

Molecule	Emax
CC(C)n1nnc2cc(-c3nc(-c4cccnc4Cl)no3)ccc21 [Compound 499]	> 75%
Cc1ccc2oc(-c3ccc4c(c3)nnn4C(C)C)nc2c1 [Compound 419]	< 75%
Cc1cc(C)cc(-c2noc(-c3ccc4c(c3)nnn4C(C)C)n2)c1 [Compound 204]	> 75%

Any idea what its Emax is? The molecule is FC(F)(F)c1cc(-c2noc(-c3ccc4c(c3)nnn4C3CCCC3)n2)ccc1OCc1cccnc1 [Compound 4]
< 75%

Same question, COc1ccc(-c2nc(-c3ccc4c(c3)nnn4C3CCCC3)no2)cc1OC [Compound 275] this time
< 75%
